All values here come from the supplement of paper PMC9170038.

Test system: MS2 coat protein
Assay: apparent KD of MS2 coat protein; designed switch direction (-1 OFF switch, 1 ON switch): -1; higher = weaker reporter binding
Conditions: input ligand: microRNA oligo, concentration not stated
Property Name: apparent KD of MS2 coat protein
# answer = value followed by unit

As a guide, the following entries are already answered.
Which apparent KD of MS2 coat protein reading was recorded for the sequence AGGUGCUUCAGGAGACAUGAGGAUCACCCAUGUUGAGUUAGCGAGGAUAUCGGUAACCCAUGUGAUGAGAAGGCGCAAACCAAU [Ex NG3 #46] (Eterna round: R96, puzzle: Exclusion NG 3) ? 52.4 nM

Which apparent KD of MS2 coat protein reading was recorded for the sequence CAUUAUUAUCGAGGAUAUCCUAUUGUAAUUCUGGGAGAAGGCGGACUCAACAUGAGGAUCACCCAUGUAAGACGGGUACUAGAU [Ex NG1 #21] (Eterna round: R96, puzzle: Exclusion NG 1) ? 61 nM

Which apparent KD of MS2 coat protein reading was recorded for the sequence UGCCCGGUUAGAGGAUAUCUACUGUGACUGGGUUUUCCAAAACAUGAGGAUCACCCAUGUGACGGAGAGAAGGCUAGCCUUAAA [Anedanage] (Eterna round: R96, puzzle: Exclusion NG 2) ? 31.1 nM

New cases:
Which apparent KD of MS2 coat protein reading was recorded for the sequence AUCCCGCGAGGAUAUACAUGAGGAUCACCCAUGUAGGUUCUGGAUGGGCGAAAUUUGUGUAGAAGGCGCACCAA [Tibeaqu] (Eterna round: R96, puzzle: Exclusion 3) ? 42.6 nM

Which apparent KD of MS2 coat protein reading was recorded for the sequence GCGCACCUACCAAAAGGUAGGCCCACAUGAGGAUCACCCAUGUAGGAUAUCGAUUGCUUUGCAGUCGAGAAGGACGUGAUGCGC [JL ENG3 3.80 Mod 17] (Eterna round: R96, puzzle: Exclusion NG 3) ? 11.6 nM

---

Test system: MS2 coat protein
Experiment: apparent KD of MS2 coat protein; designed switch direction (-1 OFF switch, 1 ON switch): 1; higher = weaker reporter binding
Details: Eterna round: R95; input ligand: FMN 200 uM
Property Name: apparent KD of MS2 coat protein (nM)
// note: answer is a bare numeric in nM

Which apparent KD of MS2 coat protein reading was recorded for the sequence AGUCCAGCCUGAGCUGGACAAAAGCAUGUACAUGAGGAUCACCCAUGUUCAUGUACAAGCUUUUUGCUCGUCUUAAA [salish99_208a_r3_026] (puzzle: Sensor for hsa-mir-208a) ? 483

Which apparent KD of MS2 coat protein reading was recorded for the sequence UUAUAACAUGAGGAUCACCCAUGUCAACAAAGUCGAGGAUAUGGGCAAUUAUUAUAAGAACCAGAAGGCGAAUAUU [Mat - Same State 1 - Mod of UCT - D32] (puzzle: Same State 1) ? 35.5

Next sequence, please.
Which apparent KD of MS2 coat protein reading was recorded for the sequence GUACGUGCAACGUAGGAUAUCCACGACACGACAUGAGGAUCACCCAUGUCAAGGCUUAAAAGUCGGGAGAAGGGCGAACCACGGA [Xereenge] (puzzle: Same State 2) ? 14.5

---

System: MS2 coat protein
Experiment: apparent KD of MS2 coat protein; designed switch direction (-1 OFF switch, 1 ON switch): 1; higher = weaker reporter binding
Details: input ligand: FMN 200 uM
As shown below, each of these sequences has a reported apparent KD of MS2 coat protein value.
// note: answer is a bare numeric in nM

Which apparent KD of MS2 coat protein reading was recorded for the sequence UUGCGGGCUUGAGGAUAUUGAGUACAUAUGUUUAACAUGAGGAUCACCCAUGUGGGUUGCGGUAUCGAGAAGGUAACUUACUAC [salish99_SSNG2_r04_807] (Eterna round: R96, puzzle: Same State NG 2) ? 110

Which apparent KD of MS2 coat protein reading was recorded for the sequence AGCUAGUACCGAGGAUAUACGUACAUGAGGAUCACCCAUGUAUACAUGAUUUAAUGAGACUACAUGUAGAAGGCGGUACUAGCA [JL SSNG2 1.24] (Eterna round: R96, puzzle: Same State NG 2) ? 12.4

Which apparent KD of MS2 coat protein reading was recorded for the sequence AGGUUCGUGCUAGGAUAUCUAGGAUAUGGACGAGGAUUACCCGAGCAGGAUUACCGCACCAGAGGAGAGAAGGAGCAACAAGAG [pwkr ssNG2 2F5 2FMN.13] (Eterna round: R96, puzzle: Same State NG 2) ? 0.959

Which apparent KD of MS2 coat protein reading was recorded for the sequence GGAUGAUAGAUAGGAUAUUGAUUGUAAUUAUGUCAAGAAGGAUCUUUGAUUUAAACGACCAGUUACAUGAGGAUCACCCAUGUU [JR_SSNG1_Sub087] (Eterna round: R96, puzzle: Same State NG 1) ? 23.3

Which apparent KD of MS2 coat protein reading was recorded for the sequence AAAGAAAAACUAGAGGAUAUCCGAGUGGUAACAUGAGGAUCACCCAUGUGAUGAAAGGAACAUGAGGAGAAGGCUAGAAGAAAAA [JL Nando mod 8] (Eterna round: R96, puzzle: Same State 2) ? 20.6

New cases:
Which apparent KD of MS2 coat protein reading was recorded for the sequence GCCAACGCAUGAGGAUAUGGCACCUUAUUGGUGCCAGAAGGCAUGUGUAUUCACAUGAGGAUCACCCAUGUAUUAUAGUUGGCA [Fiskers NG1ss - 16] (Eterna round: R96, puzzle: Same State NG 1) ? 18.2

Which apparent KD of MS2 coat protein reading was recorded for the sequence UUGAAGAAUUAAGGAUAUUGAAUACAUAUGUUUAACAUGAGGAUCACCCAUGUGGGUUGCGGUGUCGAGAAGGUAAAAUACUAG [Mat - same State NG 2 - JL mod - D97] (Eterna round: R96, puzzle: Same State NG 2) ? 236

Which apparent KD of MS2 coat protein reading was recorded for the sequence AAGCUGUGUGUAUGGUCAUUGUCAACGGUACAUGAGGAUCACCCAUGUAGCAUUAACCAUCCGACUCUGUUGGAGGU [high scoring solution 6] (Eterna round: R96, puzzle: Sensor for hsa-mir-208a) ? 58.7

Which apparent KD of MS2 coat protein reading was recorded for the sequence GCUACCAAUGAAGCCUACAUGAGGAUCACCCAUGUAUGUAGGCAGGAUAUCGAUUGCAAAGCGAUCGAGAAGGGCUUAGGUAGC [Mat - Same State NG 3 - JL Mod - D91] (Eterna round: R96, puzzle: Same State NG 3) ? 35.9
